Target: T1, recombinant His-tagged human tryptase beta 1 monomer (human, UniProt Q15661 31-275)
T1 construct: also called His6-tagged tryptase monomer; human tryptase b1 monomer
T1 sequence (Q15661 other isoform, or with tags, fused parts or gaps): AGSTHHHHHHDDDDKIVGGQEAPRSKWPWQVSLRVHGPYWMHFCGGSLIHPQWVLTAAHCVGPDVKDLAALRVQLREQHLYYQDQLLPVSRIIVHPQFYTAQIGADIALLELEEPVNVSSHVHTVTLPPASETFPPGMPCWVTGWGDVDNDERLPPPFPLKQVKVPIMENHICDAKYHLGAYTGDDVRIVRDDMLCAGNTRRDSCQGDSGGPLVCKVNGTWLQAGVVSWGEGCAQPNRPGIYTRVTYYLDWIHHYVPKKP
Assay: SPR (BIAcore T200); IgG1 captured by anti-human Fc, His-tagged monomer injected
Reported Kd by item:

| Binder | Uom | Kd |
| --- | --- | --- |
| hu31A.v7 IgG1 (antibody, V domains shown, also called v7 (of hu31A)) VH: EVQLVESGGGLVQPGGSLRLSCAASGFTFSSFGMHWVRQAPGKGLEWVAFISSGSSTVYYADTMKGRFTISRDNSKNTLYLQMNSLRAEDTAVVYCARRDNYDWYFDVWGQGTLVTVSS VL: DIQMTQSPSSLSASVGDRVTITCSASSSVTYMYWYQQKPGKAPKLLIYRTSDLASGVPSRFSGSGSGTDFTLTISSLQPEDFATYYCQHYHSYPLTFGQGTKVEIK | nM | 2.06 |
| huE104.v3 IgG1 (antibody, V domains shown) VH: EVQLVESGPGLVKPSETLSLTCTVSRFSLIGYAITWVRQPPGKGLEWIGGISSAATTFYSSWAKSRSTISRDTSKNQVSLKLSSVTAADTAVYFCARDPRGYGAALDRLDLWGQGTLVTVSS VL: DIQMTQSPSSLSASVGDRVTITCQSIKSVYNNRLGWYQQKPGKAPKLLIYETSILTSGVPSRFSGSGSGTDFTLTISSLQPEDFATYYCAGGFDRSGDTTFGQGTKVEIK | nM | 0.21 |
| hu31A.v9 IgG1 (antibody, V domains shown, also called v9 (of hu31A)) VH: EVQLVESGGGLVQPGGSLRLSCAASGFTFSSFGMHWVRQAPGKGLEWVAFISSGSSTVYYADTMKGRFTISRDNSKNTLYLQMNSLRAEDTAVVYCARRDNYDWYFDVWGQGTLVTVSS VL: DIQLTQSPSSLSASVGDRVTITCSASSSVTYMYWYQQKPGKSPKPWIYRTSDLASGVPSRFSGSGSGTDYTLTISSLQPEDFATYYCQHYHSYPLTFGQGTKVEIK | nM | 0.94 |
